These entries and their values trace back to patent US10183949B2.

Molecular target: Human autotaxin enzyme (Homo sapiens, UniProt Q13822)
Construct: purchased R&D System
Assay: Evaluation of autotaxin inhibitor, 18:0 Lyso PC / choline assay (Test Example 2)
Assay type: biochemical
Settings: human autotaxin enzyme, 18:0 Lyso PC substrate, choline assay, room temperature 2 hours; read-out: Inhibitor activity (IC50)
pIC50: −log10 of the molar value.
experimental-endpoint: pIC50

CC(C)(C)OC(=O)Cn1c(CCCC(F)(F)F)nc(-c2ccc(Cl)cc2CO)cc1=O :: > 8.00
COC(=O)Nc1cc(C#N)ccc1-c1cc(=O)n(CC(=O)NC(C)(C)CO)c(C)n1 :: 7.00 to 8.00
N#CC1(NC(=O)Cn2c(CCCC(F)(F)F)nc(-c3ccc(Cl)cc3)c(F)c2=O)CC1 :: 6.00 to 7.00
COC(=O)Nc1cc(Cl)ccc1-c1cc(=O)n(CC(=O)NC2CCS(=O)(=O)C2)c(C)n1 (stereo not drawn) :: 7.00 to 8.00
N#CC1(NC(=O)Cn2c(CCCC(F)(F)F)nc(-c3ccc(C(F)(F)F)cc3)cc2=O)CC1 :: > 8.00
O=C(c1cccc(Cn2c(CCCC(F)(F)F)nc(-c3ccc(Cl)cc3)cc2=O)c1)N(CCO)Cc1ccccc1 :: 6.00 to 7.00

Data request: Given Cc1nc(-c2ccc(C#N)cc2NC(=O)C(C)(C)C)cc(=O)n1Cc1cccc(C(=O)O)c1 , state its recorded pIC50.
Data returned: > 8.00

Data request: How about Cc1nc(-c2ccc(Cl)cc2NC(=O)C2CC2)cc(=O)n1CC(=O)N1CC(C)(O)C1 ?
Data returned: 6.00 to 7.00

Data request: How about CCCCCn1c(-c2ccc(Cl)cc2)cc(=O)n(C)c1=N ?
Data returned: ≤ 6.00

Data request: How about Cc1nc(-c2ccc(Cl)cc2NC(=O)C2CC2)cc(=O)n1CC(=O)N1CCN(CC(F)(F)F)CC1 ?
Data returned: 7.00 to 8.00

Data request: How about CNC(=O)C1CCN(C(=O)Cn2c(CCCC(F)(F)F)nc(-c3ccc(C(F)(F)F)cc3)cc2=O)CC1 ?
Data returned: 7.00 to 8.00

Data request: How about Cc1noc(C2(NC(=O)Cn3c(C)nc(-c4ccc(Cl)cc4NC(=O)C4CC4)cc3=O)CC2)n1 ?
Data returned: 7.00 to 8.00

Data request: How about O=C(Cn1c(CCCC(F)(F)F)nc(-c2ccc(Cl)cc2)cc1=O)NCCN1CCNC1=O ?
Data returned: 6.00 to 7.00

Data request: How about COC(=O)c1cccc(Cn2c(CCCC(F)(F)F)nc(-c3ccc(Cl)cc3)cc2=O)c1 ?
Data returned: 7.00 to 8.00

Data request: How about CCCCCc1nc(-c2ccc(Cl)cc2)cc(=O)n1CC(=O)NCCC(N)=O ?
Data returned: 6.00 to 7.00

Data request: How about N#CC1(NC(=O)Cn2c(CCCC(F)(F)F)nc(C3=CCC(C(F)(F)F)CC3)cc2=O)CC1 (stereo not drawn) ?
Data returned: > 8.00

Data request: How about CC(C)(C)OC(=O)Cn1c(CCCC(F)(F)F)nc(-c2ccc(C(F)(F)F)nc2)cc1=O ?
Data returned: 7.00 to 8.00

Data request: How about COC(=O)Nc1cc(Cl)ccc1-c1cc(=O)n(CC(=O)N(C)C2(CO)CCCC2)c(C)n1 ?
Data returned: 7.00 to 8.00

Data request: How about CC(C)(O)CNC(=O)Cn1c(CCCC(F)(F)F)nc(-c2ccc(C(F)(F)F)cc2)cc1=O ?
Data returned: 7.00 to 8.00

Data request: How about Cc1nc(-c2ccc(Cl)cc2NC(=O)C2CC2)cc(=O)n1CC(=O)NCC(N)=O ?
Data returned: 7.00 to 8.00

Data request: How about COC(=O)Nc1cc(Cl)ccc1-c1cc(=O)n(CC(=O)NC(C)(C)C)c(C)n1 ?
Data returned: 7.00 to 8.00

Data request: How about Cc1nc(-c2ccc(Cl)cc2NC(=O)C(C)(C)C)cc(=O)n1CC(=O)NC1(c2nc(=O)o[nH]2)CC1 ?
Data returned: 7.00 to 8.00

Data request: How about O=C(Cn1c(CCCC(F)(F)F)nc(-c2ccc(Cl)cc2)cc1=O)NCC1(CO)COC1 ?
Data returned: 7.00 to 8.00

Data request: How about COC(=O)Nc1cc(Cl)ccc1-c1cc(=O)n(CC(=O)NCC2CNC(=O)O2)c(C)n1 (stereo not drawn) ?
Data returned: 7.00 to 8.00

Data request: How about CCCCCNc1nc(-c2ccc(C(F)(F)F)cc2)cc(=O)n1Cc1ccccc1 ?
Data returned: ≤ 6.00
